- assay info: Mycobacterium tuberculosis growth inhibition, primary screen (AID 1259343)
- conditions: at 10 µM, active compounds read high
Hit rate of the full screen: of about 6,200 compounds, about 2,900 (47%) were called active. So high a share suggests a set chosen from earlier hits. The list shows a part of the results.
measured metric: inhibition (%)
Enter your answer as a number in %; do not include the unit.

molecule: OC(c1ccccc1)c1ncc(-c2ccc(Oc3ccccc3)cc2)[nH]1 (configuration not stated)
measured metric: inhibition
u: %
recorded measurement: 36.3
//
molecule: COc1ccc(C(=O)N2CCC(C(=O)Nc3cccc(-c4cccc(Cl)c4)c3)CC2)o1
measured metric: inhibition
u: %
recorded measurement: 70.5
//
molecule: N#Cc1cccc(CN2CCN3C(C(=O)NCCCc4ccccc4)=COC3=NC2=O)c1
measured metric: inhibition
u: %
recorded measurement: 89.4

Request: Consider the molecule "CSc1nnc(SCc2cc(C)no2)s1" and give its measured inhibition.
Response: 27.2

Request: Consider the molecule Cc1ccc(C(O)c2ncc(-c3ccc(C(F)(F)F)cc3)[nH]2)cc1F (configuration not stated) and give its measured inhibition.
Response: 61.8

Request: Consider the molecule "N#Cc1ccc(S(=O)(=O)NC(=O)c2sccc2C2CC2)cc1" and give its measured inhibition.
Response: 67.6

Request: Consider the molecule CC(O)c1cccc(OCc2ccc(S(=O)(=O)C(F)F)cc2)c1 (configuration not stated) and give its measured inhibition.
Response: 88.2

Request: Consider the molecule CCCc1ccc(C(O)c2ncc(-c3cccc(F)c3)[nH]2)cc1 (configuration not stated) and give its measured inhibition.
Response: 35.4

Request: Consider the molecule "Brc1ccc2nc(NCc3ccccn3)nc(-c3ccccc3)c2c1" and give its measured inhibition.
Response: 1.6

Request: Consider the molecule C1=CC(c2ccc(C=NNc3ccccn3)s2)CC1 (configuration not stated) and give its measured inhibition.
Response: -47.3

Request: Consider the molecule "O=C(NS(=O)(=O)Cc1ccccc1)c1sccc1C1CC1" and give its measured inhibition.
Response: 10.6

Request: Consider the molecule "COc1cccc(C(=O)Nc2ccc(S(=O)(=O)C(F)F)cc2)c1" and give its measured inhibition.
Response: -1.65

Request: Consider the molecule "O=C(Nc1cccc(-c2cccc(Cl)c2)c1)C1CCN(C(=O)c2ccccc2)CC1" and give its measured inhibition.
Response: 85.9

Request: Consider the molecule "N#Cc1cccc(CN2CCN3C(C(=O)Nc4ccc(-n5cccc5)cc4)=COC3=NC2=O)c1" and give its measured inhibition.
Response: 29.2

Request: Consider the molecule OC(c1cc(F)cc(Cl)c1)c1ncc(-c2ccc(Cl)cc2)[nH]1 (configuration not stated) and give its measured inhibition.
Response: 86.1

Request: Consider the molecule CN(C)C(CNC(=O)c1ccc(C(F)(F)F)cc1)c1c(F)cccc1Cl (configuration not stated) and give its measured inhibition.
Response: 8.7
